Hello, the source for this data is patent US9676714B2, in case you need it.

Molecular target: proton pump (H+/K+-ATPase) (Sus scrofa, UniProt P19156)
Construct: Gastric vesicles were prepared from hog stomach via centrifugal separation
Sequence (P19156 whole entry): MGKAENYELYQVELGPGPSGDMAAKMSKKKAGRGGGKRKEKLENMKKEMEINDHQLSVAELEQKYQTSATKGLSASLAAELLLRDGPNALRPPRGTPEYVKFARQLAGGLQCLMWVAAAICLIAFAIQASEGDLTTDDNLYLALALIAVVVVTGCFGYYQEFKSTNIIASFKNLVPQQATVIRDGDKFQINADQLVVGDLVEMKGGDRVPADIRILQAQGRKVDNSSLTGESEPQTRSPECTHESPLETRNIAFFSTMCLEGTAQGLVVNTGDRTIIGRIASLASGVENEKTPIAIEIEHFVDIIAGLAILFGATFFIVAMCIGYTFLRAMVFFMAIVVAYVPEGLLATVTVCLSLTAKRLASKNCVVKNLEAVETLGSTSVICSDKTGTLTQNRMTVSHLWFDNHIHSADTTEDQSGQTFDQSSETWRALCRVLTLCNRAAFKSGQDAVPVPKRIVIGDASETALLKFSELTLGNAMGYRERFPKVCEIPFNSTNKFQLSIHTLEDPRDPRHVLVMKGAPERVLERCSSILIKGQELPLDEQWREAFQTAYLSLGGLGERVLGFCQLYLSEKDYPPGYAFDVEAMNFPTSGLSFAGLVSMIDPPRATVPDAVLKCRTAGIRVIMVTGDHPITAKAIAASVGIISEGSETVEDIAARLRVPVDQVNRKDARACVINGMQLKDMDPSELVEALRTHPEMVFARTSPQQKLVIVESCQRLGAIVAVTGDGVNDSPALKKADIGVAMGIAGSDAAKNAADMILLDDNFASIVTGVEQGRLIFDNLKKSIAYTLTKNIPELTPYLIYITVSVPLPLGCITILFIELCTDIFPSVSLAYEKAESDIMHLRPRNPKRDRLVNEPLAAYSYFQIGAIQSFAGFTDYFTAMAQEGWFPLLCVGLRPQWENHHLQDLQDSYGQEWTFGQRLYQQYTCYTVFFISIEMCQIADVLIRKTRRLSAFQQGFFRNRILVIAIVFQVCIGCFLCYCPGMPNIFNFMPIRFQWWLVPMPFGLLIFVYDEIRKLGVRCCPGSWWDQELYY
Sequence (P18434 whole entry partner): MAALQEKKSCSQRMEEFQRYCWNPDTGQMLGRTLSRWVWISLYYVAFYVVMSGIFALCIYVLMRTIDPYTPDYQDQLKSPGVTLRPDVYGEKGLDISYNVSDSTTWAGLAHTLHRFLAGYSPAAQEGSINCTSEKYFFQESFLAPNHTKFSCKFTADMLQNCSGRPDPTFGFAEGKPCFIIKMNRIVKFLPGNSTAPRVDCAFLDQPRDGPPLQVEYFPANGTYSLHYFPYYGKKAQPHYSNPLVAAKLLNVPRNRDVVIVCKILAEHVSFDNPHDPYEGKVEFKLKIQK
Assay: Measurement of inhibitory effects on proton pump (H+/K+-ATPase) activities
Conditions: hog gastric vesicles, K+-specific H+/K+-ATPase activity, Tris-HCl buffer pH 7.4, 37° C. for 40 minutes, malachite green Pi readout
Where a name gives a salt, the structure may show the parent alone.
Lab note: cut-off is 700 nM. Strictly less in IC50 is true. Exactly 700 nM or more is false.

compound="CNCc1cn(S(=O)(=O)c2cccc(Cl)c2)c2cc(Nc3ccc(C)cc3Cl)ccc12 [Example 147, hydrochloride]" classification=true
compound="CNCc1cn(S(=O)(=O)c2cccnc2)c2cc(Nc3cncc(Br)c3)ccc12 [Example 110, hydrochloride]" classification=false
compound="CNCc1cn(S(=O)(=O)c2cccc(OC(F)(F)F)c2)c2cc(Nc3ccc(OC)cc3F)ccc12 [Example 199, hydrochloride]" classification=true
compound="CNCc1cn(S(=O)(=O)c2cccnc2)c2cc(Nc3ccc(OC(F)(F)F)cc3C)ccc12 [Example 53, hydrochloride]" classification=true
compound="CNCc1cn(S(=O)(=O)c2cccc(F)c2)c2cc(Nc3ccc(Cl)nc3Cl)ccc12 [Example 142, hydrochloride]" classification=true
compound="CNCc1cn(S(=O)(=O)c2cccnc2)c2cc(Nc3c(C)cc(F)cc3C)ccc12 [Example 81, hydrochloride]" classification=true
compound="CNCc1cn(S(=O)(=O)c2cccnc2)c2cc(Nc3ccc(OC)cc3C)ccc12 [Example 48, hydrochloride]" classification=true
compound="CNCc1cn(S(=O)(=O)c2ccc(OC(F)F)cc2)c2cc(Nc3ccc(C)cc3Cl)ccc12 [Example 220, hydrochloride]" classification=true
compound="CNCc1cn(S(=O)(=O)c2cccnc2)c2cc(Nc3ccc(Cl)cc3C#N)ccc12 [Example 30, hydrochloride]" classification=false
compound="CNCc1cn(S(=O)(=O)c2cccnc2)c2cc(Nc3ccc(Cl)cc3F)ccc12 [Example 28, hydrochloride]" classification=false
compound="CNCc1cn(S(=O)(=O)c2cccnc2)c2cc(Nc3ccc(Oc4ccc(F)cc4)cc3)ccc12 [Example 18, hydrochloride]" classification=false
compound="CNCc1cn(S(=O)(=O)c2cccnc2)c2cc(Nc3ccc(-c4cccc(OC)c4)cc3)ccc12 [Example 15, hydrochloride]" classification=false
